Values compiled from paper PMC11450741.

# Assayed system: NLRP3 (Mus musculus, UniProt Q8R4B8)
# Construct: full length recombinant NLRP3 protein (N-Flag, expressed in Expi293F cells)
# Sequence (Q8R4B8 whole entry): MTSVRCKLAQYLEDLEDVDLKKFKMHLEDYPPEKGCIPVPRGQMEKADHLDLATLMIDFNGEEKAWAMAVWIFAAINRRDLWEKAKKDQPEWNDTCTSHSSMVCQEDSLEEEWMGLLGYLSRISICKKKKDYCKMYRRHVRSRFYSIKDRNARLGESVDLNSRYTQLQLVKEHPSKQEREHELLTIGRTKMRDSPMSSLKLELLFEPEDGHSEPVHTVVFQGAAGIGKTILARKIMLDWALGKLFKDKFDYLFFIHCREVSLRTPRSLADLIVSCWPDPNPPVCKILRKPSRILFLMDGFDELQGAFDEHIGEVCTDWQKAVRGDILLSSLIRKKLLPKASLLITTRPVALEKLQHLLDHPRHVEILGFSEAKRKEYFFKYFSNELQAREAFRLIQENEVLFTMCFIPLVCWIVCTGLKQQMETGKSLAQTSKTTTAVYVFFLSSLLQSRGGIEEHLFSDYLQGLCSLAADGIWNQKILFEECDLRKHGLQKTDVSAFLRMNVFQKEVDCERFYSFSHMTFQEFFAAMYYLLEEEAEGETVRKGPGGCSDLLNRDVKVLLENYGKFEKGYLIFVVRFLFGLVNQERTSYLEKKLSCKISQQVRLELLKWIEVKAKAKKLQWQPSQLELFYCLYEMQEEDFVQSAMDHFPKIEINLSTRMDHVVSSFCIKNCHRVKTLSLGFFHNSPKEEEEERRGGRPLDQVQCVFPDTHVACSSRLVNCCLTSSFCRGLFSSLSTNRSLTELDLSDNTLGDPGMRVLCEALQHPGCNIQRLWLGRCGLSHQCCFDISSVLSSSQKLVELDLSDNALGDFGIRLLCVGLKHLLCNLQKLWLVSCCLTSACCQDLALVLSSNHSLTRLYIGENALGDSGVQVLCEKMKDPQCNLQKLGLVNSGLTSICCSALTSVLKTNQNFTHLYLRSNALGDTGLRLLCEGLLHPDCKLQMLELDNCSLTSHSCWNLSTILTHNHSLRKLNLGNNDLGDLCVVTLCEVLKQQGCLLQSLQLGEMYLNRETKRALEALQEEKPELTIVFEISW
# Test name: intrinsic fluorescence spectroscopy titration (ex […]/em […] nm); supported by Western blot thermal shift ([…] to […] °C)
pKd: −log10 of the molar value.
Measured quantity: pKd

>>> obs_value("CCCOc1ccc(Cl)cc1CN(CCc1ccc(S(=O)(=O)N2CCOCC2)cc1)C(=O)Cc1ccsc1")
6.25
